Please respond with reported shrunken log2 fold change for every item in the list.
# System: Escherichia coli TOP10
# testName: shrunken log2 fold change of peptide-encoding DNA abundance (4.5 h post-induction vs induction); higher = less antimicrobial activity (less host growth inhibition)
# experimentalSetup: time post-induction: 4.5 h; library: site-saturation at positions 5, 18, 19, 20
One number for each entry.

Some solved entries appear below for comparison.
residueCodes | val
RRIRTRPPRLPRPRPRPQREPRP | -0.0725
RRIRKRPPRLPRPRPRPHPVPRP | 0.185
RRIRIRPPRLPRPRPRPVVHPRP | -0.000671
RRIRFRPPRLPRPRPRPNATPRP | 0.0167
RRIRNRPPRLPRPRPRPMHIPRP | -0.168
RRIRPRPPRLPRPRPRPAYHPRP | -0.129

Required: shrunken log2 fold change, one value per sequence below.
1. RRIRERPPRLPRPRPRPDSIPRP
2. RRIRHRPPRLPRPRPRPFACPRP

[-0.042, -0.205]

====

Please respond with reported shrunken log2 fold change for every item in the list.
# Test system: Escherichia coli TOP10;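 also: peptides expressed intracellularly from a pBAD plasmid library in pooled LB shake-flask culture, induced with 0.3% L-arabinose, DNA abundance read by NGS, three biological replicates, DESeq2 with apeglm shrinkage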
# testName: shrunken log2 fold change of peptide-encoding DNA abundance (4.5 h post-induction vs induction); higher = less antimicrobial activity (less host growth inhibition)
# experimentalSetup: time post-induction: 4.5 h; library: site-saturation at positions 5, 18, 19, 20
Numbers only.

Some solved entries appear below for comparison.
residueCodes | shrunken log2 fold change
RRIRRRPPRLPRPRPRPCEIPRP | 0.0684
RRIRHRPPRLPRPRPRPNYHPRP | -0.83
RRIRDRPPRLPRPRPRPEATPRP | 1.98
RRIRWRPPRLPRPRPRPTGEPRP | 0.306
RRIRDRPPRLPRPRPRPPHYPRP | 0.0761
RRIRCRPPRLPRPRPRPWYIPRP | -0.331
RRIRDRPPRLPRPRPRPIEYPRP | -0.029
RRIRCRPPRLPRPRPRPRSEPRP | 0.325
RRIRWRPPRLPRPRPRPKARPRP | 0.836
RRIRYRPPRLPRPRPRPSSDPRP | -0.218

Required: shrunken log2 fold change, one value per sequence below.
1. RRIRTRPPRLPRPRPRPPQKPRP
2. RRIRMRPPRLPRPRPRPQKFPRP
3. RRIRNRPPRLPRPRPRPSMYPRP
4. RRIRRRPPRLPRPRPRPSDVPRP
5. RRIRRRPPRLPRPRPRPWCNPRP
6. RRIRTRPPRLPRPRPRPSVAPRP
7. RRIRARPPRLPRPRPRPMKGPRP
8. RRIRKRPPRLPRPRPRPWWKPRP

1: 0.0412; 2: -0.000921; 3: -0.309; 4: -0.374; 5: -0.543; 6: 0.00143; 7: -0.132; 8: -0.103

Required: shrunken log2 fold change, one value per sequence below.
1. RRIRYRPPRLPRPRPRPYWIPRP
2. RRIRMRPPRLPRPRPRPALRPRP
3. RRIRRRPPRLPRPRPRPVWGPRP
4. RRIRTRPPRLPRPRPRPVEVPRP

-0.222
0.851
0.359
-0.0848

Required: shrunken log2 fold change, one value per sequence below.
1. RRIRARPPRLPRPRPRPIQKPRP
2. RRIRGRPPRLPRPRPRPHDNPRP
3. RRIRVRPPRLPRPRPRPSSSPRP
4. RRIRWRPPRLPRPRPRPLQHPRP
5. RRIRMRPPRLPRPRPRPWHAPRP
6. RRIRIRPPRLPRPRPRPWASPRP
7. RRIRGRPPRLPRPRPRPGQWPRP
8. RRIRFRPPRLPRPRPRPCGEPRP

1: 0.00369; 2: 0.174; 3: -0.113; 4: 0.394; 5: 0.098; 6: 0.00397; 7: 0.356; 8: -0.0646

Required: shrunken log2 fold change, one value per sequence below.
1. RRIRYRPPRLPRPRPRPRWPPRP
2. RRIRWRPPRLPRPRPRPFMWPRP
3. RRIRQRPPRLPRPRPRPSYFPRP
4. RRIRMRPPRLPRPRPRPPNNPRP

1. 0.498
2. -0.0278
3. -0.515
4. 0.436

Required: shrunken log2 fold change, one value per sequence below.
1. RRIRNRPPRLPRPRPRPLKGPRP
2. RRIRCRPPRLPRPRPRPVYNPRP
3. RRIRERPPRLPRPRPRPLHCPRP
4. RRIRSRPPRLPRPRPRPPSNPRP
5. RRIRYRPPRLPRPRPRPLILPRP

[-0.0139, -0.378, 0.0821, -0.00786, -0.767]

Required: shrunken log2 fold change, one value per sequence below.
1. RRIRTRPPRLPRPRPRPWYHPRP
2. RRIRERPPRLPRPRPRPCDHPRP
3. RRIRDRPPRLPRPRPRPQHIPRP
4. RRIRSRPPRLPRPRPRPSLRPRP
5. RRIRCRPPRLPRPRPRPHRRPRP
6. RRIRGRPPRLPRPRPRPFTRPRP
7. RRIRVRPPRLPRPRPRPTNEPRP
8. RRIRRRPPRLPRPRPRPADCPRP

1. -0.464
2. -0.0479
3. -0.762
4. -0.269
5. -0.167
6. 0.0912
7. -0.0806
8. 0.0869
